study_target: T1, IL-1β (UniProt P01584 117-269)
T1 construct: Antigen immobilised on the Biacore chip
assay_protocol: Biacore, periplasmic extract
Listing of recorded fold difference in affinity vs original by entry.
Numeric only. Scale: fold

Example entries and their recorded answers appear below.
# binder, fold difference in affinity vs original / fold
rows = [
    ("XPA23 light chain A51S (Fab, V domains shown) VH: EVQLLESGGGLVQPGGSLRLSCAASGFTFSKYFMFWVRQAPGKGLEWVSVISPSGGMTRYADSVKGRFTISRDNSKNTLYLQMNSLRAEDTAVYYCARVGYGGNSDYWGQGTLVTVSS VL: DIQMTQSPSSVSASVGDRLTIICRASQDINRWLAWYQQTPGNAPKLLIHSSTSLQSGVPSRFSGSGSGTDFTLTINSLQPEDFATYYCQQADSFPLTFGGGTKVEIK", 0.95),
    ("XPA23 light chain D92W (Fab, V domains shown) VH: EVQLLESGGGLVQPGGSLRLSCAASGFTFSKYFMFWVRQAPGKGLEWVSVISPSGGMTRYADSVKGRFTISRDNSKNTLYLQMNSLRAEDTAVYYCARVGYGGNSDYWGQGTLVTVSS VL: DIQMTQSPSSVSASVGDRLTIICRASQDINRWLAWYQQTPGNAPKLLIHSATSLQSGVPSRFSGSGSGTDFTLTINSLQPEDFATYYCQQAWSFPLTFGGGTKVEIK", 0.12),
]

Note: attention shifts to another entry.
Name the recorded fold difference in affinity vs original for XPA23 light chain R31W (Fab, V domains shown) VH: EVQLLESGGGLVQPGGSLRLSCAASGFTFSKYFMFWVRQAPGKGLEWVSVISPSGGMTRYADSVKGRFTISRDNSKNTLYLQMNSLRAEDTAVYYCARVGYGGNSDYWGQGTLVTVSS VL: DIQMTQSPSSVSASVGDRLTIICRASQDINWWLAWYQQTPGNAPKLLIHSATSLQSGVPSRFSGSGSGTDFTLTINSLQPEDFATYYCQQADSFPLTFGGGTKVEIK .
0.43

From: patent US20110118131A1
